Recorded protein stability index, one value per entry.
B1: PLK2 (parent)
chain: YAELGQCSVFPATDAPEQFISQVT

Variants of: B1
Assay Name: protein stability index of a GFP-peptide fusion (GPS, HEK-293T) (PSI 1-6); higher = more stable;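 also: lentivirally expressed fusions sorted by FACS into six bins by GFP to DsRed ratio, PSI derived from sequencing read proportions per bin multiplied by bin number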
Assay Context: c terminus: a fixed tail appended

# Sequence Content, protein stability index
rows = [
    ("YAEYGQCSVFPATDAPEQFISQVT", 2.06),
    ("YAELGQHSVFPATDAPEQFISQVT", 1.91),
    ("YANLGQCSVFPATDAPEQFISQVT", 2.08),
    ("YAELGQCSCFPATDAPEQFISQVT", 2.42),
    ("YAELGQCSVFPATDAPEQFISQAT", 2.39),
    ("YAELGQCSVFPATDAPEQFASQVT", 2.13),
    ("YAELGQCSVFPATDAPEQRISQVT", 3.85),
    ("YAELGQCSVFPATDAPEQFIFQVT", 1.82),
    ("PAELGQCSVFPATDAPEQFISQVT", 4.5),
    ("YAELGQCSVFGATDAPEQFISQVT", 3.1),
    ("YAELGQCSVFPATFAPEQFISQVT", 2.04),
    ("YAELGQCSVFPATDAPEQSISQVT", 2.01),
    ("YAELGQCSVFPATNAPEQFISQVT", 2.13),
    ("YAELGQNSVFPATDAPEQFISQVT", 1.89),
    ("YAELGQCSVFPATYAPEQFISQVT", 2.56),
    ("YAELGQCSVFPATSAPEQFISQVT", 2.09),
    ("YAELGLCSVFPATDAPEQFISQVT", 2.03),
    ("YAELGQTSVFPATDAPEQFISQVT", 2.87),
    ("YAELGQCSSFPATDAPEQFISQVT", 3.34),
    ("YAELGQCIVFPATDAPEQFISQVT", 1.75),
    ("YAELGQCSVFPATDAPEQFISPVT", 2.47),
    ("YAELDQCSVFPATDAPEQFISQVT", 3.32),
    ("YAELGQCSVFPATDAPTQFISQVT", 2.6),
    ("YAELGWCSVFPATDAPEQFISQVT", 2.89),
    ("YAELGFCSVFPATDAPEQFISQVT", 2.14),
    ("YAELGQCSVFPATDAPEQFQSQVT", 2.31),
    ("YAELGQWSVFPATDAPEQFISQVT", 2.5),
    ("YAALGQCSVFPATDAPEQFISQVT", 1.85),
    ("YAELGQCSVFPATDAPEQPISQVT", 2.4),
    ("YAQLGQCSVFPATDAPEQFISQVT", 2.02),
    ("YAELGQCSVFPATDAPEQFISQVN", 2.92),
    ("YHELGQCSVFPATDAPEQFISQVT", 2.57),
    ("YAELGQCSWFPATDAPEQFISQVT", 2.5),
    ("YAERGQCSVFPATDAPEQFISQVT", 1.99),
    ("YAELGQCSVFWATDAPEQFISQVT", 2.82),
    ("YAELGQCSVFPATDAPEQFISTVT", 2.1),
    ("YAELGQCSVHPATDAPEQFISQVT", 3.43),
    ("YAELGQCSVFPATDAPEQFISQGT", 2.52),
    ("YAELGQCSVFPATDAPEQFISQVL", 2.21),
    ("YAELGQCSVFPATDAPEQFISQVI", 2.48),
    ("YAELGQCSVFPATDAIEQFISQVT", 1.74),
    ("YADLGQCSVFPATDAPEQFISQVT", 2.19),
    ("YAELGDCSVFPATDAPEQFISQVT", 3.3),
    ("YAELGQCSVFPATDAPEQFISGVT", 2.36),
    ("YAELGQESVFPATDAPEQFISQVT", 3.9),
    ("YCELGQCSVFPATDAPEQFISQVT", 1.92),
    ("YAELGQCSVFPATDAPEQFISQVP", 2.08),
    ("YAELGQCSVFHATDAPEQFISQVT", 2.32),
    ("YAELGQCSVFPATDAPEQFDSQVT", 2.75),
    ("YAELGQCSVFPATDAPEQFIHQVT", 1.8),
    ("YAELGQCSVFPAKDAPEQFISQVT", 2),
    ("YAELGQCSVFVATDAPEQFISQVT", 2.33),
    ("YAELGQCSVFPFTDAPEQFISQVT", 2.18),
    ("YAELGQCTVFPATDAPEQFISQVT", 2.28),
    ("YAELGQCSVFPATDAPVQFISQVT", 1.78),
    ("YAELGQCSVFPATDAPEQFITQVT", 2.49),
    ("YAELGQCSVFPATDAFEQFISQVT", 1.64),
    ("YAELGQCSVFPCTDAPEQFISQVT", 1.87),
    ("YAELGQCSVFPATDAPEQFISQVS", 2.1),
    ("YAGLGQCSVFPATDAPEQFISQVT", 1.85),
    ("YAELGQCSVFPATDAPEQFISQTT", 2.48),
    ("YAELGQCSVCPATDAPEQFISQVT", 3.07),
    ("YAELGQCSVFPATDAPEQFISQVD", 2.64),
    ("YAELGQCSVFPATDAAEQFISQVT", 1.8),
    ("YAELGQDSVFPATDAPEQFISQVT", 3.04),
    ("YAELGQCSVFPATDAPEQFLSQVT", 2.11),
    ("YAELGQCSVFPATDAPEQFPSQVT", 2.24),
    ("YAELGQCSVFAATDAPEQFISQVT", 2.14),
    ("YAKLGQCSVFPATDAPEQFISQVT", 2.17),
    ("YAWLGQCSVFPATDAPEQFISQVT", 1.66),
    ("YAELGMCSVFPATDAPEQFISQVT", 1.54),
    ("YAELGQCSVFPATDGPEQFISQVT", 2.38),
    ("DAELGQCSVFPATDAPEQFISQVT", 4.58),
    ("YAELGQCSVFPATDAPEQFIYQVT", 1.57),
    ("YAELGQCSVFPATDAPEQFTSQVT", 2.27),
    ("YAELGQCSVFPATDAPEQFKSQVT", 2.15),
    ("YAELGQCSVFPATDAPEQFIDQVT", 2.72),
    ("YAELGQCSVFPATDWPEQFISQVT", 2.29),
    ("YAELGQQSVFPATDAPEQFISQVT", 2.36),
    ("YAELGQCSVFSATDAPEQFISQVT", 2.56),
    ("YAELGQCSVFPLTDAPEQFISQVT", 1.66),
    ("YAELGQCSVFPATDAPEQFISQCT", 2.95),
    ("RAELGQCSVFPATDAPEQFISQVT", 3.78),
    ("YAELGQCSVFPATDAPEQQISQVT", 2.81),
    ("YAELGQCSVFPATDAPEQFISAVT", 1.94),
    ("YAELGQCYVFPATDAPEQFISQVT", 1.59),
    ("YAELGQCSVFPATDAPEQFISQWT", 2.39),
    ("YAELGQCSVFPATHAPEQFISQVT", 1.97),
    ("YAELGQCSVFPATDAPAQFISQVT", 1.92),
    ("YAELGQCSVFPATDAPEQFISQET", 2.75),
    ("YAELGQCSVFPATDAPEQCISQVT", 1.96),
]

Origin of values: the supplement of paper PMC10567573
